- EXPERIMENTAL TARGET: SHP2-C SH2;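 note: peptide library displayed on the E. coli surface as eCPX fusions, selected cells deep-sequenced, score is each peptide's frequency after selection divided by its frequency in the input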
- MEASUREMENT DESCRIPTION: SH2 binding enrichment of the phosphorylated peptide, bacterial display (enrichment ratio); higher = better substrate or ligand; peptides without Tyr show the background
OBSERVED PROPERTY: SH2 binding enrichment

Examples from the recorded data:
• LFLALYTGLVH [PIGB_Y402] = 0.7
• MDDDQYALLTA [EFCAB6_Y675_T680A] = 0.702
• GYCSWYRGWAP [TIMP3_Y195] = 0.715

1 = RRNSPYSQTMK [TET2_Y819]
2 = NAPNSYGRRPT [CDKN2A_Y44_I49T]
3 = VRSTEYPCAGL
Ask: # rank_down: sort by SH2 binding enrichment, max first # format: label list in the order the request specifies
Reply: 3, 2, 1
(3: 1.08, 2: 0.615, 1: 0.43)
